- Method notes: Approximate solubility at 25° C. and 50° C. (visual)
- Assay type: physicochemical
- Test settings: DMSO, 25 °C, organic solvent or mixture, thermodynamic from solid, DMSO, 25° C.; read-out: Solubility
Metric name: solubility

// field: solubility; key: CCN(C)S(=O)(=O)Nc1ccc(F)c(Oc2ccc3ncn([C@H]4COC5(CCN(C(=O)CC6(O)CCN(c7cc8c(cc7F)c(N7CCC(=O)NC7=O)nn8C)CC6)CC5)C4)c(=O)c3c2)c1C#N [Compound 1 Form A] ; value = ≥ 250 mg/mL

* * *

- Method notes: Solubility in aqueous pH buffers and bio-relevant fluids at 37° C.
- Type: physicochemical
- Test settings: simulated gastric fluid, thermodynamic from solid; pH 1.2 HCl solution (0.2N), 37° C.
Metric name: solubility at 2 h
Put your answer as a value accompanied by its unit after it.

Short answer for CCN(C)S(=O)(=O)Nc1ccc(F)c(Oc2ccc3ncn([C@H]4COC5(CCN(C(=O)CC6(O)CCN(c7cc8c(cc7F)c(N7CCC(=O)NC7=O)nn8C)CC6)CC5)C4)c(=O)c3c2)c1C#N [Compound 1 Form B] : solubility at 2 h was 11.7 µg/mL

Reference source: patent US20250289827A1
